Would you kindly list Dmax for each of these compounds?
- tested_system: EGFR L858R/C797S (Homo sapiens, UniProt P00533, C797S/L858R)
- Construct: expressed in transfected cells; host or cells: BaF3 LC
- Sequence (P00533 25-1210 C797S/L858R): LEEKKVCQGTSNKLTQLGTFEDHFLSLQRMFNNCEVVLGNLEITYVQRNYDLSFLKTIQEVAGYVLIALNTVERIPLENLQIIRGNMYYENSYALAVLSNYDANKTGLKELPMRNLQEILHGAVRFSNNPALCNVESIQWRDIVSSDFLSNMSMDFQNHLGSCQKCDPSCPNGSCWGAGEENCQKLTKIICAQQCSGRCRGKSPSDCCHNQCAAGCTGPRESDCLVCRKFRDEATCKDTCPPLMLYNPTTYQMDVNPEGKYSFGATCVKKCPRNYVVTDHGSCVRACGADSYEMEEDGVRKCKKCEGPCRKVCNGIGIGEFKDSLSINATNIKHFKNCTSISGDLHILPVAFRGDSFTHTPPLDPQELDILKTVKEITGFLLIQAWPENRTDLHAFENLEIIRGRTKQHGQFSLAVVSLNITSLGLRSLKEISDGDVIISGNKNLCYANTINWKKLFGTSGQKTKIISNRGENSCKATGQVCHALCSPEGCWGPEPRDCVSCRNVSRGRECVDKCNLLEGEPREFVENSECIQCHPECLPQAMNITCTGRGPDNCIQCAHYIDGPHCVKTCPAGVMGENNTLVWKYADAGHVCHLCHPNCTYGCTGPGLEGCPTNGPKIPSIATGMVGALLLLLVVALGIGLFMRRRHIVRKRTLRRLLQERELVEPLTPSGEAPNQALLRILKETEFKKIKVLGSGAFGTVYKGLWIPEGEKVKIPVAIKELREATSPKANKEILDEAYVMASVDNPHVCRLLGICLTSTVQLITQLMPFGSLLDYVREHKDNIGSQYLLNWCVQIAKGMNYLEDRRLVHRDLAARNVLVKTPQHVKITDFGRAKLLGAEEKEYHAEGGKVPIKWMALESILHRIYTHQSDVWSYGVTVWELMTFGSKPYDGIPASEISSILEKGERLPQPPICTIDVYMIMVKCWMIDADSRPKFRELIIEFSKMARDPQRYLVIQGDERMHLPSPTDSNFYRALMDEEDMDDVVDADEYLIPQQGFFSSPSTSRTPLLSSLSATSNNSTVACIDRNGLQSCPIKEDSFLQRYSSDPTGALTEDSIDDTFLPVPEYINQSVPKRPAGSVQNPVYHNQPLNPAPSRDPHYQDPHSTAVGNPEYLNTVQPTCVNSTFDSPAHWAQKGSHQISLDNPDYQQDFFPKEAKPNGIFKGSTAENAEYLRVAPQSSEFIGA
- measurement_notes: EGFR degradation HTRF assay in BaF3 LC cells
- Format: cell-based
- assay_context: BaF3 LC (L858R/C797S), maximum percentage of inhibition (degradation); read-out: BaF3 LC Dmax (%)
Numbers only, in %.

CCc1ccc2c(P(C)(C)=O)c(Nc3nc(Nc4cc(CC)c(N5CCC(N6CCN(CCc7cc(F)c(C8CCC(=O)NC8=O)c(F)c7)CC6)CC5)cc4OC)ncc3Br)ccc2n1 (centres unmarked)	88.3
CCc1ccc2c(P(C)(C)=O)c(Nc3nc(Nc4cc(CC)c(N5CCC(N6CCN(CCc7ccc8c(c7)oc(=O)n8C7CCC(=O)NC7=O)CC6)CC5)cc4OC)ncc3Br)ccc2n1 (centres unmarked)	94.7
CCOc1cc(N2CCC(N3CCN(CCc4cccc5c4n(CC)c(=O)n5C4CCC(=O)NC4=O)CC3)CC2)c(CC)cc1Nc1ncc(Br)c(Nc2ccc3nc(CC)ccc3c2P(C)(C)=O)n1 (centres unmarked)	86

Could you tell me Dmax for each of these compounds? They are listed below.
1. CCc1ccc2c(P(C)(C)=O)c(Nc3nc(Nc4cc(CC)c(N5CCC(N6CCN(C(=O)[C@H]7CN(c8cc(F)c([C@H]9CCC(=O)NC9=O)c(F)c8)CC7(C)C)CC6)CC5)cc4OC)ncc3Br)ccc2n1
2. CCOc1cc(N2CCC(N3CCN(CCc4cccc5c4C(C)(C)C(=O)N5C4CCC(=O)NC4=O)CC3)CC2)c(CC)cc1Nc1ncc(Br)c(Nc2ccc3nc(CC)ccc3c2P(C)(C)=O)n1 (centres unmarked)

1: 87.3; 2: 91.8
